Entry source: ChEMBL document CHEMBL4376883

Tested on: A549
Experiment: Antiproliferative activity against human A549 cells measured after 72 hrs by CCK8 assay
Assay type: functional, cell-based
Settings: A549, 72 h
property_label: pIC50
Note: pIC50 values are expressed as the negative base-10 logarithm of concentration in M.

Worked cases, answers included:
sample_smiles | target_system | pIC50
Cc1cc(C)c(S(=O)(=O)N(CC(=O)O)c2ccc(Nc3ccnc(N4CCCC4)n3)cc2)c(C)c1 | A549 | 4.25
Cc1cc(C)c(S(=O)(=O)N(CC(=O)NO)c2ccc(Nc3ccnc(N4CCNCC4)n3)cc2)c(C)c1 | A549 | 4.79
Cc1cc(C)c(S(=O)(=O)N(Cc2nnn[nH]2)c2ccc(Nc3ccnc(N4CCNCC4)n3)cc2)c(C)c1 | A549 | 4.42

INPUT: State, in one line, measured pIC50 of COC(=O)CN(c1ccc(Nc2ccnc(N3CCNCC3)n2)cc1)S(=O)(=O)c1c(C)cc(C)cc1C
OUTPUT: 4.36
